Below, each entry is listed with its recorded reverse-splicing fitness.
B1: Azoarcus group I ribozyme (parent)
chain: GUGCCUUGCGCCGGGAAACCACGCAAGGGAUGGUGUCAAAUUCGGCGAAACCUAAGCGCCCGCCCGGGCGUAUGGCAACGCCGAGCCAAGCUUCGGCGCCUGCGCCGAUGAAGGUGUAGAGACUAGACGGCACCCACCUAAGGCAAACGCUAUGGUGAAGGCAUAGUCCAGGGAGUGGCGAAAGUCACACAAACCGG

# Variants of: B1
# Protocol description: reverse-splicing fitness (ratio to wild type); higher = more active; in vitro selection; Mg2+ level not given
Recorded endpoint: reverse-splicing fitness

* C82U A120G C150G | 0.00711
* C82U A120G C150A C169G U176G | 0.00456
* C82A A111U A145C C169A U176G | 0.00702
* A120C A145C C150U C169U U176G | 0.00874
* A111U A120G A145C C150U C169A U176A | 0.012
* C82G A111C A120U C150G C169U U176G | 0.00294
* C82A A111G A120G A145G C169A U176A | 0.0226
* C82U A120G C150G C169A U176A | 0.00927
* C82A A120C A145G C150A C169A U176C | 0.0248
* C82U A120C A145U C150U U176A | 0.0328
* A111U A120U A145C C150A U176A | 0.012
* C82G A145G C150A C169A | 0.0117
* C82G A120G A145G C150A C169G U176G | 0.00507
* C82G A111U A120G A145U C150G | 0.00715
* C82A A111C A120U C150G C169G | 0.0061
* C82U A120G A145C C169A U176A | 0.00959
* A111C A120G A145U C150G C169G | 0.0203
* A111U A120U C150A C169A U176G | 0.00251
* C82U A111U A120U C169A U176C | 0.00317
* A120C C150A C169G U176G | 0.00418
* C82G A120U A145C C150G C169U | 0.00302
* A111C A120U A145U U176G | 0.0748
* A111U A120G A145C C150U C169G U176A | 0.0293
* C82A A120G A145G C150U C169A | 0.0179
* C82A A111G A120C A145C U176C | 0.024
* C82A A111G A145G U176G | 0.0444
* C82A A111C A145C C150U C169G | 0.0076
* C82G A111U A145C C169U | 0.0121
* C82A A111G A145G C150G C169G U176C | 0.011
* C82A A111G A120G C169A U176C | 0.0213
* C82U A120C A145G C150G C169U U176G | 0.00619
* C82U A111G A120U C150A C169G U176G | 0.00213
* A111G A120C C150G C169U U176A | 0.00767
* A111U A120C A145C C169G U176C | 0.0106
* C82A A111G A145G C150G U176C | 0.0188
* C82G A111U A120C A145U C169A U176A | 0.015
* C82G A111U A120U C150G C169A U176A | 0.00533
* A111C A120U A145C C150U C169G U176A | 0.00383
* C82U A111U A145G C150G C169A U176G | 0.0074
* C82G A111U A120G A145C C150G U176A | 0.0058

All values here come from the RNAGym collection of RNA variant scans (doi:10.1093/molbev/msab373).
